# SYSTEM UNDER TEST: T1, non-tagged, non-linked native human IL-23p19/p40 coexpressed in SF9 cells (eBioscience CAT No. 34-8239) (human, UniProt P29460 23-328)
# T1 sequence 1: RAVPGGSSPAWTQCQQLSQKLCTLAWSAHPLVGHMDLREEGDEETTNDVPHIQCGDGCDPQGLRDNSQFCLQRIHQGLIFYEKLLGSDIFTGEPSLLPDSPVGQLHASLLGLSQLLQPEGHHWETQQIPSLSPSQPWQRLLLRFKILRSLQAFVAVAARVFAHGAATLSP
# T1 sequence 2: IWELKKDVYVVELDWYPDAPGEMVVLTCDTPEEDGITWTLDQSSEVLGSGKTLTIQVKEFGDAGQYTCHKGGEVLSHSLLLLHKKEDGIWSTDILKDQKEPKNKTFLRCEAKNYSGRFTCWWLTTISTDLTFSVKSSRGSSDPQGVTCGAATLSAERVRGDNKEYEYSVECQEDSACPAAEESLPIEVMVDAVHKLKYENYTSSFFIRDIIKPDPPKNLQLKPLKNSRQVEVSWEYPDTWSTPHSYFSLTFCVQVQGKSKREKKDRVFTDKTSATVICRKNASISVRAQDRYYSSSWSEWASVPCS
# ASSAY PROTOCOL: cell-based or functional assay
PARAMETER: IC50 (pM), blocking of Ba/F3 cell proliferation
Please report the result as a number followed by the unit.

These solved cases illustrate the format of a correct answer.
humanized anti-human IL-23p19 antibody 7G10 (antibody, human IgG1, kappa, V domains shown, Full-length humanized antibody, human IgG1 / kappa; also called hu7G10; hum7G10) VH: QVQLVQSGAEVKKPGASVKVSCKASGYTFTSNVMHWVRQAPGQGLEWMGYINPYNDGTKYNEKFKGRVTMTTDTSTSTAYMELRSLRSDDTAVYYCARNWDVAYWGQGTLVTVSS VL: DIQMTQSPSSLSASVGDRVTITCRASQSISDYLHWYQQKPGKAPKLLIYYASQSISGVPSRFSGSGSGTDFTLTISSLQPEDFATYYCQNGHSFPFTFGQGTKVEIKR: 7800 pM
mouse anti-human IL-23p19 antibody 35F12 (antibody, V domains shown, also called m35F12) VH: QVQLQQPGAELMRPGASVRLSCKASGYSFTTSWMNWVKQRPGQGLEWIGMIHPSDSETRLNQNFKDKATLTVDRSSSTAYMQLNSPTSEDSAVYYCARGMITAPSVYWGQGTLVTVSA VL: DIVLTQSPASLAVSLGQRATISCRASKSVSTSAYSYFHWYQQKPGQPPKLLIYLASNLESGVPARFSGSGSGTDFTLNIHPVEEGDAATYYCQHSRELPWTFGGGTKLEITR: 12 pM

Query (binder): humanized anti-human IL-23p19 antibody 6H12 (antibody, human IgG1, kappa, V domains shown, Full-length humanized antibody, human IgG1 / kappa; also called hu6H12; hum6H12) VH: QVQLVQSGAEVKKPGASVKVSCKASGYTFNRYLIHWVRQAPGQGLEWMGYINPNNAGTNYNEKFKGRVTMTTDTSTSTAYMELRSLRSDDTAVYYCARNWDQAYWGQGTLVTVSS VL: DIQMTQSPSSLSASVGDRVTITCRASQSISDYLHWYQQKPGKAPKLLIYYTSQSISGVPSRFSGSGSGTDFTLTISSLQPEDFATYYCQNGHSFPFTFGQGTKVEIKR ; field requested: IC50 (pM), blocking of Ba/F3 cell proliferation
3200 pM
